# lowest phenotypically active concentration values compiled below
# System: HepG2-ACTB-RAB5A
# testDescription: lowest phenotypically active concentration; higher = less potent
# conditionParameters: treatment time: 24 h
Where a name gives a salt, the structure may show the parent alone.
Express your answer in µM, writing the number without its unit.

O=c1cc(N2CCOCC2)oc2c(-c3cccc4c3sc3ccccc34)cccc12; 1

Item: COc1cc(/C=C/C(=O)N2CCC=CC2=O)cc(OC)c1OC [Piperlongumine] | lowest phenotypically active concentration: 3

Item: "Cc1ccc(NC(=O)CCCCCC(=O)Nc2ccccc2N)cc1" | lowest phenotypically active concentration: 1

Item: COc1c(Cl)cc2c([nH]c3cnccc32)c1NC(=O)c1cccnc1C [ML 120B dihydrochloride] | lowest phenotypically active concentration: 9

Item: N=C(N)c1ccc(OCCCCCOc2ccc(C(=N)N)cc2)cc1 [pentamidine] | lowest phenotypically active concentration: 9

Item: "COc1cc(N2CCC(N3CCN(C)CC3)CC2)ccc1Nc1ncnc(Nc2ccccc2S(=O)(=O)C(C)C)n1" | lowest phenotypically active concentration: 9

Item: "Cc1noc(C)c1-c1ccc2c(c1)nc(CCc1ccc(OCCCN(C)C)cc1)n2CCN1CCOCC1" | lowest phenotypically active concentration: 9
